- TARGET DESC: T1, TRBC2 peptide (biotinylated) (human, also: biotinylated (site not given here))
- T1 construct: In the monoclonal screen: biotinylated, 0.5 ug/ml on neutravidin-coated plates; In the polyclonal phage ELISA also presented as BSA or OA conjugate of the C-terminal-cysteine form; also called Bio-TRBC2; biotinylated TRBC2
- T1 peptide: VLEDLKNVFPPEVAV
- EXPERIMENT NOTES: TRF assay, scFv on biotin-peptide/neutravidin plate
No end group written: not given here.
MEASUREMENT NAME: TRBC2 binding
Express your answer as a number followed by its unit.

Worked cases, TRBC2 binding given:
- BINDER: "CP_03_D05 (scFv, not shown: small tags and cut ends, scFv from pSANG10-3F (His6, tri-FLAG), culture supernatant) scFv: QVQLVESGAEVKKPGASVKVSCKASGYTFTGYYMHWVRQAPGQGLEWMGRINPNSGGTNYAQKFQGRVTMTRDTSISTAYMELSRLRSDDTAVYYCASPRGRGSAFDIWGQGTLVTVSSGGGGSGGGGSGGGASSYELTQPPSVSVSPGQTATISCSGDQLGGKYGHWYQKKPGQSPVLVLYQDRKRPAGIPERFSGSSSGNTITLTISGTQAVDEADYYCQAWDTNLGGVFGGGTKVTVLGQPAA"
  TRBC2 binding: "213000 TRF units"
- BINDER: "CP_03_G09 (scFv, not shown: small tags and cut ends, scFv from pSANG10-3F (His6, tri-FLAG), culture supernatant) scFv: QVQLQQSGPGLVKPSQTLSLTCAISGDSVSSNSAAWNWIRQSPSRGLEWLGRTYYRSKWYNDYAVSVKSRITINPDTSKNQFSLQLNSVTPEDTAVYYCARDQWLANYYYYGMDVWGQGTLVTVSSGGGGSGGGGSGGGASSYELTQPLSVSVALGQTARITCGGNNIGSKNVHWYQQKPGQAPVLVIYRDNNRPSGIPERFSGSNSGNTATLTISKAQAGDEADYYCQVWDSNSWVFGGGTKLTVLGQPAA"
  TRBC2 binding: "139000 TRF units"
- BINDER: "CP_03_D04 (scFv, not shown: small tags and cut ends, scFv from pSANG10-3F (His6, tri-FLAG), culture supernatant) scFv: EVQLVESGGGVVQPGRSLRLSCAASGFTFSSYAMHWVRQAPGKGLEWVAVISYDGSNKYYADSVKGRFTISRDNSKNTLYLQMNSLRAEDTAVYYCARGGFTVPGGAFDIWGQGTLVTVSSGGGGSGGGGSGGGASNFMLTQPHSVSDSPGKTVTISCTRSSGRIGSNFVQWYQQRPGSSPTTVIYEDDQRPSGVPARFSGSIDSSSNSASLTISGLTTADEAGYYCQSYDASNVIFGGGTKLTVLGQPAA"
  TRBC2 binding: "143000 TRF units"

For the next question, use this binder.
Query block: Tell me the measured TRBC2 binding of CP_03_H06 (scFv, not shown: small tags and cut ends, scFv from pSANG10-3F (His6, tri-FLAG), culture supernatant) scFv: QVQLVESGGGLVKPGGSLRLSCAASGFTFSDYYMSWIRQAPGKGLEWVSYISSSGSTIYYADSVEGRFTISRDNAKNSLYLQMNSLRTEDTAVYYCARARVGGMDVWGQGTMVTVSSGGGGSGGGGSGGGASNFMLTQPHSVSESPGKTVTISCTRSSGSIASNYVQWYQQRPGSSPTTVIYEDNQRPSGVPDRFSGSIDSSSNSASLTISGLKTEDEADYYCQSFDADNLHVVFGGGTKLTVLGQPAA , please.
Result block: 168000 TRF units
